experiment: Metabolic stability in 80% human plasma assessed as compound remaining at 5 mg/ml at 15 mins by HPLC analysis; type: ADME, cell-free; conditions: read-out: Stability
Exercise: for every item that follows, state its recorded remaining at 0.25 h, 5 mg/ml.
Answers are plain numbers, in %.

CC(C)=CC(=O)O[C@@H]1CC(C)(C)C[C@H]2C3=CC[C@@H]4[C@@]5(C)CC[C@H](OC(=O)c6ccc(Cl)cc6)C(C)(C)[C@@H]5CC[C@@]4(C)[C@]3(C)CC[C@@]12C(=O)O; 70.2

In the following, a different compound is considered.
Query (compound): "COc1cccc(C(=O)O[C@H]2CC[C@]3(C)[C@H]4CC=C5[C@@H]6CC(C)(C)C[C@@H](OC(=O)C=C(C)C)[C@]6(C(=O)O)CC[C@@]5(C)[C@]4(C)CC[C@H]3C2(C)C)c1" ; field requested: remaining at 0.25 h, 5 mg/ml
70.4

----------
Biological target: Inhibitor of nuclear factor kappa-B kinase subunit beta (Homo sapiens, UniProt O14920)
Sequence (O14920 whole entry): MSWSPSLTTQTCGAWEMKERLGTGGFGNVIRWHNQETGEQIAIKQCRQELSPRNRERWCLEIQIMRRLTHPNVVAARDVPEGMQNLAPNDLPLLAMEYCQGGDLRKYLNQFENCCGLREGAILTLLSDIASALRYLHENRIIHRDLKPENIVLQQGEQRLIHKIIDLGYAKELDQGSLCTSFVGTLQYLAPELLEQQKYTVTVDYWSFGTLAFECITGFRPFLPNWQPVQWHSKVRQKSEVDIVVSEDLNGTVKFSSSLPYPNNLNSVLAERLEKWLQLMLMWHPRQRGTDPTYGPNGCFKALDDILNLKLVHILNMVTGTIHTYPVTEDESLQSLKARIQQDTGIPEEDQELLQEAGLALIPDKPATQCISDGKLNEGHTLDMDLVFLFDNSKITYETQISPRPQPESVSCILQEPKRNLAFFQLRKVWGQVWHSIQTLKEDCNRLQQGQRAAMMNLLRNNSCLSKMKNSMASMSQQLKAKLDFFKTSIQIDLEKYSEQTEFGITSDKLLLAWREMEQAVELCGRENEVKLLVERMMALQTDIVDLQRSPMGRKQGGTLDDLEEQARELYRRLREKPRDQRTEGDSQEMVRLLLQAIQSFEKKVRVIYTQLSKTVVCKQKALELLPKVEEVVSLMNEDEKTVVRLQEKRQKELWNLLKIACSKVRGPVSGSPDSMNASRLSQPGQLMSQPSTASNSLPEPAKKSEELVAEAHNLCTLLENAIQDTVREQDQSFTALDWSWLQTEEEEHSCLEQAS
Assay: Inhibition of phosphorylation of human recombinant Flag-tagged IKKbeta expressed in Sf21 cells after 1 hr by Kinase-Glo luminescent kinase assay
Conditions: sf21
observable: pIC50
Give bare numbers, as −log10 of the molar value.

Query (compound): "CC(C)=CC(=O)O[C@@H]1CC(C)(C)C[C@H]2C3=CC[C@@H]4[C@@]5(C)CC[C@H](O)C(C)(C)[C@@H]5CC[C@@]4(C)[C@]3(C)CC[C@@]12C(=O)O" ; field requested: pIC50
5.37

----------
assay: Stability in simulated gastric fluid at pH 2 assessed as compound remaining measured at 5 mg/ml at 2 hrs by HPLC analysis; format: ADME; details: read-out: Stability
observable: remaining at 2 h, 5 mg/ml
Quick note: number first, unit second.

CC(C)=CC(=O)O[C@@H]1CC(C)(C)C[C@H]2C3=CC[C@@H]4[C@@]5(C)CC[C@H](OC(=O)c6ccc(Cl)cc6)C(C)(C)[C@@H]5CC[C@@]4(C)[C@]3(C)CC[C@@]12C(=O)O; 92.2%

Query (compound): "COc1cccc(C(=O)O[C@H]2CC[C@]3(C)[C@H]4CC=C5[C@@H]6CC(C)(C)C[C@@H](OC(=O)C=C(C)C)[C@]6(C(=O)O)CC[C@@]5(C)[C@]4(C)CC[C@H]3C2(C)C)c1" ; field requested: remaining at 2 h, 5 mg/ml
93%

----------
assay: Stability in simulated gastric fluid at pH 2 assessed as compound remaining measured at 5 mg/ml at 8 hrs by HPLC analysis; type: ADME; settings: read-out: Stability
observable: remaining at 8 h, 5 mg/ml (%)
Numbers only, in %.

CC(C)=CC(=O)O[C@@H]1CC(C)(C)C[C@H]2C3=CC[C@@H]4[C@@]5(C)CC[C@H](OC(=O)c6ccc(Cl)cc6)C(C)(C)[C@@H]5CC[C@@]4(C)[C@]3(C)CC[C@@]12C(=O)O; 80.3

In the following, a different compound is considered.
Query (compound): "COc1cccc(C(=O)O[C@H]2CC[C@]3(C)[C@H]4CC=C5[C@@H]6CC(C)(C)C[C@@H](OC(=O)C=C(C)C)[C@]6(C(=O)O)CC[C@@]5(C)[C@]4(C)CC[C@H]3C2(C)C)c1" ; field requested: remaining at 8 h, 5 mg/ml
83.3

----------
experiment: Metabolic stability in 80% human plasma assessed as compound remaining at 5 mg/ml at 120 mins by HPLC analysis; assay type: ADME, cell-free; conditions: read-out: Stability
observable: remaining at 2 h, 5 mg/ml
Quick note: number first, unit second.

COc1cccc(C(=O)O[C@H]2CC[C@]3(C)[C@H]4CC=C5[C@@H]6CC(C)(C)C[C@@H](OC(=O)C=C(C)C)[C@]6(C(=O)O)CC[C@@]5(C)[C@]4(C)CC[C@H]3C2(C)C)c1; 35.3%

Query (compound): "CC(C)=CC(=O)O[C@@H]1CC(C)(C)C[C@H]2C3=CC[C@@H]4[C@@]5(C)CC[C@H](OC(=O)c6ccc(Cl)cc6)C(C)(C)[C@@H]5CC[C@@]4(C)[C@]3(C)CC[C@@]12C(=O)O" ; field requested: remaining at 2 h, 5 mg/ml
32.3%
